# Measurement Target: Apoptosis regulator Bcl-2 (Homo sapiens, UniProt P10415)
# Sequence (P10415 whole entry): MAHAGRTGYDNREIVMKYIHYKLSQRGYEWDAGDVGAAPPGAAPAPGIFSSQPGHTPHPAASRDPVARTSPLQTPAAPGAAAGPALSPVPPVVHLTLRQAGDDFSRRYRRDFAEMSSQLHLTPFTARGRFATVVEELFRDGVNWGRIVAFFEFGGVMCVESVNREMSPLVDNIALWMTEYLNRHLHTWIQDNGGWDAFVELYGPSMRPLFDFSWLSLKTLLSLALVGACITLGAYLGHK
Outcome Measure: pKi
Just the number, please; pKi means minus log10 of the concentration in mol/L.

Example cases with answers are listed next.
* Cc1ccc(S(=O)(=O)NC(=O)[C@H](Cc2ccccc2)N2C(=O)/C(=C/c3ccc(-c4ccccc4)cc3)SC2=S)cc1 | 6.12
* O=C(N[C@@H](Cc1ccccc1)C(=O)NS(=O)(=O)c1ccccc1)c1cn(Cc2ccc(-c3ccc(Cl)cc3)cc2)c2ccccc12 | 6.13
* COc1ccc(-c2ccc(Cn3cc(C(=O)N[C@@H](Cc4c[nH]c5ccccc45)C(=O)NS(=O)(=O)c4ccc(C)cc4)c4ccccc43)cc2)cc1 | 6.12
* CCCOc1ccc(C[C@H](NC(=O)c2cn(Cc3ccc(-c4ccccc4)cc3)c3ccccc23)C(=O)NS(=O)(=O)c2ccc(Cl)c([N+](=O)[O-])c2)cc1 | 5.25
* COc1ccc(-c2ccc(Cn3cc(C(=O)N[C@@H](Cc4ccccc4)C(=O)NS(=O)(=O)c4ccccc4)c4ccccc43)cc2)cc1 | 5.89

# ---- query compound ----
Incoming: Reported pKi, compound "O=C(N[C@@H](Cc1ccc(Br)cc1)C(=O)NS(=O)(=O)c1ccccc1)c1cn(Cc2ccc(-c3ccc(Cl)cc3)cc2)c2ccccc12" : ____
Outgoing: 6.04

* * *

// each record: one item and its Ki for Bcl-2-like protein 1 (Homo sapiens, UniProt Q07817)
State just the number; it will be interpreted in nM.

• CC(C)C[C@H](NC(=O)c1cn(Cc2ccc(-c3ccc(Cl)cc3)cc2)c2ccccc12)C(=O)NS(=O)(=O)c1ccccc1 = 6200
• Cc1ccc(S(=O)(=O)NC(=O)[C@H](Cc2ccccc2)N2C(=O)/C(=C/c3ccc(-c4ccccc4)cc3)SC2=S)cc1 = 810
• O=C(N[C@@H](Cc1ccccc1)C(=O)NS(=O)(=O)c1ccccc1)c1cn(Cc2ccc(-c3ccc(Cl)cc3)cc2)c2ccccc12 = 2100

Incoming: Reported Ki, compound "O=C(N[C@@H](Cc1ccccc1)C(=O)NS(=O)(=O)c1ccc(Cl)c([N+](=O)[O-])c1)c1cn(Cc2ccc(-c3ccc(Cl)cc3)cc2)c2ccccc12" : ____
Outgoing: 710

* * *

# Measurement Target: Induced myeloid leukemia cell differentiation protein Mcl-1 (Homo sapiens)
# Sequence (Q07820 whole entry): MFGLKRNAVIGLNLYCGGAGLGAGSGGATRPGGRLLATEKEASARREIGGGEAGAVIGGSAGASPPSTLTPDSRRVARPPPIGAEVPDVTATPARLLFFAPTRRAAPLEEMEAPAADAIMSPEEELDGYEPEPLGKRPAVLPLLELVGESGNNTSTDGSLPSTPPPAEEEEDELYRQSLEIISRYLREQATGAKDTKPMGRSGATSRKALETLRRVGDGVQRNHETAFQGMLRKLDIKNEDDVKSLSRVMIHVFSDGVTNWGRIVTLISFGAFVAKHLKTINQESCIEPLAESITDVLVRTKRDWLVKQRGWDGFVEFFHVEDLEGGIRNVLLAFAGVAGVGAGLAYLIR
# Protocol Details: Inhibition of N-terminal FAM-labeled Bid-BH3 peptide binding to MCL1 (unknown origin) preincubated for 30 mins followed by N-terminal FAM-labeled Bid-BH3 peptide addition measured after 20 mins by fluorescence polarization assay
We begin with a simple list: items and their reported pKi.
Just the number, please; pKi means minus log10 of the concentration in mol/L.

- Cc1ccc(S(=O)(=O)NC(=O)[C@H](Cc2ccccc2)N2C(=O)/C(=C/c3ccc(-c4ccccc4)cc3)SC2=S)cc1: 6.36
- COc1ccc(-c2ccc(Cn3cc(C(=O)N[C@@H](Cc4c[nH]c5ccccc45)C(=O)NS(=O)(=O)c4ccc(C)cc4)c4ccccc43)cc2)cc1: 6.28

Incoming: Give Induced myeloid leukemia cell differentiation protein Mcl-1 (Homo sapiens) pKi for "O=C(N[C@@H](Cc1ccccc1)C(=O)NS(=O)(=O)c1ccc(Cl)c([N+](=O)[O-])c1)c1cn(Cc2ccc(-c3ccc(Cl)cc3)cc2)c2ccccc12"
Outgoing: 7.14

Incoming: Also "O=C(N[C@@H](Cc1ccccc1)C(=O)NS(=O)(=O)c1ccccc1)c1cn(Cc2ccc(-c3ccc(Cl)cc3)cc2)c2ccccc12" , if possible.
Outgoing: 6.31

Incoming: Also "CC(C)C[C@H](NC(=O)c1cn(Cc2ccc(-c3ccc(Cl)cc3)cc2)c2ccccc12)C(=O)NS(=O)(=O)c1ccccc1" , if possible.
Outgoing: 6.22

* * *

We begin with a simple list: items and their reported pKi.
# Measurement Target: Apoptosis regulator Bcl-2 (Homo sapiens)
Just the number, please; pKi means minus log10 of the concentration in mol/L.

• CC(C)C[C@H](NC(=O)c1cn(Cc2ccc(-c3ccc(Cl)cc3)cc2)c2ccccc12)C(=O)NS(=O)(=O)c1ccccc1 = 6.04

# ---- query molecule ----
Incoming: Reported pKi, molecule "O=C(N[C@@H](Cc1ccccc1)C(=O)NS(=O)(=O)c1ccc(Cl)c([N+](=O)[O-])c1)c1cn(Cc2ccc(-c3ccc(Cl)cc3)cc2)c2ccccc12" : ____
Outgoing: 6.59
